assay-target: Arf-GAP with SH3 domain, ANK repeat and PH domain-containing protein 1 (Homo sapiens, UniProt Q9ULH1)
Sequence (Q9ULH1 whole entry, the tested form may be a part): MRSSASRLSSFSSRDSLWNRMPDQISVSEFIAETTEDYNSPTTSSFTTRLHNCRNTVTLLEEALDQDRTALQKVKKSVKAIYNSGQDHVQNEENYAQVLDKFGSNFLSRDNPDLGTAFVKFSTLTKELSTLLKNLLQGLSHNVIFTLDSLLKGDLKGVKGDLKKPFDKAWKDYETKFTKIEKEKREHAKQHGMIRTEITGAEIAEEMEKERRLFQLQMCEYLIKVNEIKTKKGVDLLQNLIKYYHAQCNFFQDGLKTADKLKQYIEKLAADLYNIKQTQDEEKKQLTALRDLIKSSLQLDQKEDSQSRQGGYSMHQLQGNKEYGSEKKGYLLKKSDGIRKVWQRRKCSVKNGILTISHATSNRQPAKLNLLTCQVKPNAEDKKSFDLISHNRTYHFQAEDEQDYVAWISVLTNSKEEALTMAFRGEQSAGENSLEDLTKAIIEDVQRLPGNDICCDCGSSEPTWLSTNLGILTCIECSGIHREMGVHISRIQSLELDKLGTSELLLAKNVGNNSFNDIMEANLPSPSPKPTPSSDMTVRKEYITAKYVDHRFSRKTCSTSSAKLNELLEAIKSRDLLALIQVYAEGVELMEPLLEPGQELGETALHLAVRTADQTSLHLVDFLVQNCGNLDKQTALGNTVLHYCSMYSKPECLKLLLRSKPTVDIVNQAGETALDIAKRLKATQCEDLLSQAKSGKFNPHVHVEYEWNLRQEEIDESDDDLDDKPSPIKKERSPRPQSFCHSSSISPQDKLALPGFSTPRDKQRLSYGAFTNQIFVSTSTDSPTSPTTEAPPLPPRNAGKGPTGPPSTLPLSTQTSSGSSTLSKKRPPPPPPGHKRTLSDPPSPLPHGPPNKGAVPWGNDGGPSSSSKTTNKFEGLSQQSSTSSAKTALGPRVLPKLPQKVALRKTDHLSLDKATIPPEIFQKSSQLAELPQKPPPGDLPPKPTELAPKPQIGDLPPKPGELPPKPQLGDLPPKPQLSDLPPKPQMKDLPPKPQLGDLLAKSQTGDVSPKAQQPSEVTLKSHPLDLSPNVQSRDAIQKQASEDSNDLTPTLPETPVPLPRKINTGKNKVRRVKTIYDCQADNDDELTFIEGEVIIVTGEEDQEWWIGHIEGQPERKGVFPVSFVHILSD
result-type: IC50

Request the reported IC50 associated with O=C(Nc1cccc(-c2csc(Nc3ccc(Cl)cc3)n2)c1)c1ccccc1 > 165 µM
